test: in vitro; type: cell-based, African green monkey; details: African green monkey, Cytotoxicity (IC50, μM) Vero

>  <structure string>
O=C(O)CCC(=O)OCCc1ccccc1

>  <IC50 at 4 d>
> 225 µM

$$$$
>  <structure string>
COc1cc(O)c2c(=O)c3c(O)cc(C)cc3oc2c1O

>  <IC50 at 4 d>
58.9 µM

$$$$
>  <structure string>
CCC(=O)c1cc(OC)cc2oc3cc(C)cc(O)c3c(=O)c12

>  <IC50 at 4 d>
> 160 µM

$$$$
>  <structure string>
COc1cc(O)c2c(=O)c3c(O)cc(C)cc3oc2c1OC

>  <IC50 at 4 d>
> 165 µM

$$$$
>  <structure string>
COc1cc2oc3cc(C)cc(O)c3c(=O)c2c(C)c1O

>  <IC50 at 4 d>
> 175 µM

$$$$
